MEASURED_TARGET: human kappa receptor (Homo sapiens)
Construct: expressed in transfected cells
ASSAY_METHOD_TEXT: Opioid receptor binding assay, κ, [3H]U69593, HEK 293 cell membranes
MEASUREMENT_PARAMETERS: inhibition of [3H]U69593, HEK 293 cell membrane; compounds of Formula I; read-out: IC50 (nM) κ
TEST_READOUT: IC50 (nM)
Express your answer in nM, writing the number without its unit.

Below: 2 molecules and their reported IC50.
[[record]]
input_smiles = "Cc1ccc(-c2nc(CN(C)C)nn2-c2cccc(O)c2)c(C)c1"
uom = "nM"
test_value = 351

[[record]]
input_smiles = "CN(C)Cc1nc(-c2ccc(C(C)(C)C)cc2)n(-c2cccc(O)c2)n1"
uom = "nM"
test_value = 3850


Continue with the molecule presented below.
input: Entry CN(C)Cc1nc(-c2cccc(C(C)(C)C)c2)n(-c2cccc(O)c2)n1 needs its IC50 filled in; supply it.
output: 341

###

MEASURED_TARGET: UniProt:P42866
Sequence (P42866 whole entry): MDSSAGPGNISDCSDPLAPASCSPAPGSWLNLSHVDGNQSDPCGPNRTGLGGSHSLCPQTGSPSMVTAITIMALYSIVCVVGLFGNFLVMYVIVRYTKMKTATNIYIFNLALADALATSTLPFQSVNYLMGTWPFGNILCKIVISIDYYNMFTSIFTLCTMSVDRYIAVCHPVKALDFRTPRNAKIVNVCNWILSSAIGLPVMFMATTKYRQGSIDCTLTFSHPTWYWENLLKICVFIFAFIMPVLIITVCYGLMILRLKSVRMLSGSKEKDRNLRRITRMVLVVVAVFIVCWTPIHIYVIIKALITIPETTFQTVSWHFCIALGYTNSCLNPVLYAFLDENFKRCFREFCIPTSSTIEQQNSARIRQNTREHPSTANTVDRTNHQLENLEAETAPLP
TEST_READOUT: pIC50
# log scale: pIC50 equals minus log10 of the concentration in mol/L

input: With UniProt:P42866 as the test system, provide measured pIC50 for this compound: CN(C)c1nnc(-c2cccc(O)c2)n1-c1cccc(C(C)(C)C)c1 [DST10S]
output: 6.93

###

# IC50 listing for each entry below
MEASURED_TARGET: delta receptor (Mus musculus)
Sequence (P32300 whole entry): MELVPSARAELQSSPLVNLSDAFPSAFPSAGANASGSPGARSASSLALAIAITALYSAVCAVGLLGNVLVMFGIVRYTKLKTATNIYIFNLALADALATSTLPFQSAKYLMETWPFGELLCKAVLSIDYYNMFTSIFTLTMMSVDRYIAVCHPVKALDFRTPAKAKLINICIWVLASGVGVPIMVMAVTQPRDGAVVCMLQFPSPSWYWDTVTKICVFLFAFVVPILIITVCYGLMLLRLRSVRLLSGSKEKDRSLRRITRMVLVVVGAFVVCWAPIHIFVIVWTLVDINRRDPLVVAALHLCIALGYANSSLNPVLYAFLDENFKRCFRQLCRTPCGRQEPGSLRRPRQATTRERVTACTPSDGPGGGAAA
ASSAY_METHOD_TEXT: Opioid receptor binding assay, δ, [3H]DPDPE, HEK 293 cell membranes
MEASUREMENT_PARAMETERS: compounds of Formula II, Table III
Express your answer in nM, writing the number without its unit.

[[record]]
compound = "CN(C)c1nnc(-c2cccc(O)c2)n1-c1cccc(C(C)(C)C)c1 [DST10S]"
test_value = 114


Continue with the compound presented below.
input: Entry CN(C)c1nnc(-c2cccc(O)c2)n1-c1ccc(C(C)(C)C)cc1 needs its IC50 filled in; supply it.
output: 2780

###

MEASURED_TARGET: human kappa receptor (Homo sapiens, UniProt P41145)
Construct: expressed in transfected cells
Sequence (P41145 whole entry): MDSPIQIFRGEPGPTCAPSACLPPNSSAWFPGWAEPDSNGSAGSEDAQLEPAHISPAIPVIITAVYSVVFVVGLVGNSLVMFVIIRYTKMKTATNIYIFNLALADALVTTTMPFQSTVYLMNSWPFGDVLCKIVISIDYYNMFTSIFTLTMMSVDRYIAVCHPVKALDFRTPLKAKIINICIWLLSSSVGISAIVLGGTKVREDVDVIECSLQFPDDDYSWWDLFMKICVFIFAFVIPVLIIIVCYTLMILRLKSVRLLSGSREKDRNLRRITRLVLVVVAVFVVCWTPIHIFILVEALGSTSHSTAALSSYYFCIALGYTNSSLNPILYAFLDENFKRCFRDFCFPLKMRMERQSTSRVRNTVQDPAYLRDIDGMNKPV
ASSAY_METHOD_TEXT: Opioid receptor binding assay, κ, [3H]U69593, HEK 293 cell membranes
MEASUREMENT_PARAMETERS: compounds of Formula II, Table III; read-out: IC50 κ
Protocol: Receptor binding assay: Cell membrane preparations were obtained from HEK 293-stable transfectants expressing either the murine δ or μ or the human κ receptor. […] Filters were soaked in Ecoscint liquid scintillation solution (National Diagnostics, Manville, N.J.) and filter-bound radioactivity was measured using a Packard Tri-Carb 2100 TR liquid scintillation analyzer. […] Protein concentrations were determined with the Bio-Rad protein using bovine serum albumin as the standard.
TEST_READOUT: IC50
Units required after the number.

[[record]]
compound = "CN(C)c1nnc(-c2cccc(O)c2)n1-c1cccc(C(C)(C)C)c1 [DST10S]"
test_value = "0.023 µM"


Continue with the compound presented below.
input: Entry CN(C)c1nnc(-c2cccc(O)c2)n1-c1ccc(C(C)(C)C)cc1 needs its IC50 filled in; supply it.
output: 2.13 µM
